Target Of Assay: EGFR del746-750 T790M (Homo sapiens, UniProt P00533, DEL746-750/T790M)
Sequence (P00533 with tags, fused parts or gaps DEL746-750/T790M limits assumed): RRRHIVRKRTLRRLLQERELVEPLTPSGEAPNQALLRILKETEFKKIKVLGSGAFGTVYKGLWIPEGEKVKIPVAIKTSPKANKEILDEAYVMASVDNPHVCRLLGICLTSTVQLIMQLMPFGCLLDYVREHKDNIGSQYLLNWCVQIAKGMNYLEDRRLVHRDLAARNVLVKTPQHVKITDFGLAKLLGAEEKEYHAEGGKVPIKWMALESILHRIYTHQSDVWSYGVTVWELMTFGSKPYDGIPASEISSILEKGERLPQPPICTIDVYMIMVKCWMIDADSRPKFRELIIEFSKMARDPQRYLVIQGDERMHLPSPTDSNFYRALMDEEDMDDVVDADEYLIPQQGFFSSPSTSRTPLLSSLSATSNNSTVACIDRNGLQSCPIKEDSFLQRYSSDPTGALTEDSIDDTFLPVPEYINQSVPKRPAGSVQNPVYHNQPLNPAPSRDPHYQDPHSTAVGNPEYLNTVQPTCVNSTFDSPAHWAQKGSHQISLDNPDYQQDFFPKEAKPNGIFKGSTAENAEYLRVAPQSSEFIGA
Protocol Summary: EGFR del746-750 T790M biochemical assay (Caliper mobility shift)
Assay Context: 5 μM ATP, 30 min, room temperature; apparent Ki (Morrison) converted by Cheng-Prusoff, Km of ATP 2.1 μM; read-out: EGFR(T790M/d746-750) Ki
Measurement Name: pKi
// field semantics: pKi = negative decimal log of concentration (mol/L)

Below: 5 compounds and their reported pKi.
{"columns": ["Compound", "Target Of Assay", "Measured Value"],
 "data": [
  ["Cc1nc2cnc(Nc3ccnc(N4Cc5cn[nH]c5C(C)(C)C4)n3)cc2n1C(C)C", "EGFR del746-750 T790M (Homo sapiens, UniProt P00533, DEL746-750/T790M)", 7.72],
  ["CCC(C)n1cc(C(=O)NC2COCCOC2)c2cnc(Nc3ccnc(-c4cnn(S(=O)(=O)C5CC5)c4)n3)cc21 (centres unmarked)", "EGFR del746-750 T790M (Homo sapiens, UniProt P00533, DEL746-750/T790M)", 8.78],
  ["CC[C@@H](C)n1cc(C(=O)NC2CCOCC2)c2cnc(Nc3ccnc(N4CC[C@H](OC)[C@H](F)C4)n3)cc21 (single isomer, unassigned)", "EGFR del746-750 T790M (Homo sapiens, UniProt P00533, DEL746-750/T790M)", 8.39],
  ["CCNC(=O)c1cn(C(C)CC)c2cc(Nc3ccnc(N4CC[C@@H](O)[C@@H](F)C4)n3)ncc12 (single isomer, unassigned) [Example 370]", "EGFR del746-750 T790M (Homo sapiens, UniProt P00533, DEL746-750/T790M)", 8.40],
  ["CC(C)n1c(CO)nc2cnc(Nc3ccnc(N4CC[C@@](O)(C5CC5)[C@H](F)C4)n3)cc21 (racemic)", "EGFR del746-750 T790M (Homo sapiens, UniProt P00533, DEL746-750/T790M)", 6.68]
]}

Inquiry: Provide measured pKi value, entry: CC(C)n1c(CO)nc2cnc(Nc3ccnc(N4CCC5(CC4)CNC(=O)CO5)n3)cc21
Reply text: 6.24

Inquiry: Provide measured pKi value, entry: Cc1nc2cnc(Nc3ccnc(NCC(C)(C)S(C)(=O)=O)n3)cc2n1C(C)C
Reply text: 7.29

Inquiry: Provide measured pKi value, entry: CCC(C)n1cc(C(=O)NC2CCOCC2)c2cnc(Nc3ccnc(-c4cnn(S(=O)(=O)C5CC5)c4)n3)cc21 (single isomer, unassigned; (+)) [Example 321]
Reply text: 8.84

Inquiry: Provide measured pKi value, entry: CCCC(C)n1c(CO)nc2cnc(Nc3ccnc(-c4cnn(S(=O)(=O)C5CC5)c4)n3)cc21 (centres unmarked)
Reply text: 8.25

Inquiry: Provide measured pKi value, entry: CC(C)n1c(CO)nc2cnc(Nc3ccnc(C4=CCC(O)CC4)n3)cc21 (centres unmarked)
Reply text: 7.17

Inquiry: Provide measured pKi value, entry: CCC(C)n1cc(C(=O)NC2CCN(C3COC3)CC2)c2cnc(Nc3ccnc(-c4cnn(S(=O)(=O)C5CC5)c4)n3)cc21 (racemic)
Reply text: 8.94

Inquiry: Provide measured pKi value, entry: CC(C)n1cc(C(=O)NC2CCOCC2)c2cnc(Nc3ccnc(N4CCC(O)C(C)(C)C4)n3)cc21 (racemic)
Reply text: 8.19

Inquiry: Provide measured pKi value, entry: COC1CCN(c2nccc(Nc3cc4c(cn3)nc(C)n4C(C)CC#N)n2)CC1 (centres unmarked)
Reply text: 6.16

Inquiry: Provide measured pKi value, entry: Cc1nc2cnc(Nc3ccnc(NCC4CCS(=O)(=O)C4)n3)cc2n1C(C)C (centres unmarked)
Reply text: 5.94
